Value source: patent US12441768B2

# Condition summary: % Viability non-Wnt responsive cells; also: test concentration or dose not given here
Where a SMILES comes first, the peptide text is derived from it.
The entries below come with measured viability values attached.
Measurement kind: viability (%)

Compound	Measure unit	Numeric value
CC[C@H](C)[C@@H]1NC(=O)[C@H](CC(C)C)NC(=O)[C@H](Cc2ccccc2)NC(=O)[C@H](Cc2c[nH]c3ccccc23)NC(=O)[C@@H](N)CCCCNC(=O)CNC(=O)CC[C@@H](C(=O)NCC(=O)O)NC(=O)[C@H](Cc2c[nH]c3ccccc23)NC(=O)[C@H](Cc2ccccc2)NC(=O)[C@H](CS)NC1=O [compound 174] (HELM PEPTIDE1{K.W.F.L.I.C.F.W.E.G}|CHEM1{[O=C(CN[*:2])[*:1]]}$PEPTIDE1,CHEM1,1:R3-1:R1|PEPTIDE1,CHEM1,9:R3-1:R2$$$V2.0)	%	102
CC[C@H](C)[C@@H]1NC(=O)[C@H](CC(C)C)NC(=O)[C@H](Cc2ccccc2)NC(=O)[C@H](Cc2c[nH]c3ccccc23)NC(=O)[C@H](CCSC)NC(=O)CCCCCNC(=O)C[C@@H](C(=O)O)NC(=O)[C@H](Cc2c[nH]c3ccccc23)NC(=O)[C@H](C)NC(=O)[C@H](CS)NC1=O [compound 192] (HELM PEPTIDE1{[O=C(CCCCCN[*:1])[*:2]].M.W.F.L.I.C.A.W.D}$PEPTIDE1,PEPTIDE1,1:R1-10:R3$$$V2.0)	%	103
